System: HCV replicon
Format: cell-based
ATTRIBUTE MEASURED: IC50

COc1ccc2c(C#N)c(-c3ccc(N4CCCS4(=O)=O)cc3)n(C3CCC3)c2c1    0.5 to 2 µM

// IC50 value for CCOc1ccc2c(C#N)c(-c3ccc(N)cc3)n(C3CCC3)c2c1 : 0.5 to 2 µM

Per the records, this compound ( CCn1c(-c2ccc(N3CCNC3=O)cc2)c(C#N)c2ccc(OCCCCl)cc21 ) has IC50 equal to 0.5 to 2 µM

IC50 measured on N#Cc1c(-c2ccc(NC(=O)NC3CCC3)cc2)n(C2CCC2)c2cc(OCCCCN3CCCC3)ccc12 = < 0.5 µM

The recorded IC50 for entry CC(C)NC(=O)Nc1ccc(-c2c(C#N)c3ccc(OCCN4CCC4)cc3n2C2CCC2)cc1 equals < 0.5 µM

Lab note: measured IC50 of CCCCNC(=O)Nc1ccc(-c2c(C#N)c3ccc(OCC)cc3n2CCC)cc1 was < 0.5 µM

# compound CCOc1ccc2c(c1)c(C#N)c(-c1ccc(NC(=O)OCC3CC3)cc1)n2C1CCC1 ; its IC50 = < 0.5 µM

So, CCOc1ccc2c(C#N)c(-c3ccc(NC(=O)OC)cc3)n(C3CCC3)c2c1 ? Its IC50 was < 0.5 µM

Looking up CCCS(=O)(=O)Nc1ccc(-c2c(C#N)c3cc(OC)ccc3n2C2CCC2)cc1 , I see its IC50 listed as 0.5 to 2 µM

The origin of these recorded values is patent US7973069B2.
